# Ki annotations
# Study target: human α7 nAChR (Homo sapiens, UniProt P36544)
# Construct: expressed in transfected cells; host or cells: SH-SY5Y
# Sequence (P36544 23-502): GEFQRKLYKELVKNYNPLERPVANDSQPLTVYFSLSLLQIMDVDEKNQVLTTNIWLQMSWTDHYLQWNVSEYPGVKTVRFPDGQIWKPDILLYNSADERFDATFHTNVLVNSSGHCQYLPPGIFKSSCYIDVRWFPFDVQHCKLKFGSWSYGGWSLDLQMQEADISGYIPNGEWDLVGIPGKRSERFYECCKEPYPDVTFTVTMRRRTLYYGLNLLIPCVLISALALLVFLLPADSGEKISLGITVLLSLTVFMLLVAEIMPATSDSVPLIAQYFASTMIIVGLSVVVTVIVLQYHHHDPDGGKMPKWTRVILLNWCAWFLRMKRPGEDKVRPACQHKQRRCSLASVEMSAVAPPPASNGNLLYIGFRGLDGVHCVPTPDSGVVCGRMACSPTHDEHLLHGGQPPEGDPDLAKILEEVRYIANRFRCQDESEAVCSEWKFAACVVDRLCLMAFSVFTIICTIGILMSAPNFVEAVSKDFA
# Procedure details: Radioligand displacement at human α7 nAChR, [3H]methyllycaconitine, SH-SY5Y cells
# Format: binding
# Condition context: stably transfected SH-SY5Y cells, [3H]methyllycaconitine; read-out: Affinity (Ki in nM) hα7

>  <Molecule>
CN1CC2CCC(C1)N2c1ccc2c(c1)S(=O)(=O)c1c(F)cccc1-2 [Compound 14b]

>  <Ki (nM)>
9.26

$$$$
>  <Molecule>
O=S1(=O)c2ccc(F)cc2-c2ccc(N3CCN4CCC3CC4)cc21 [Compound 10a]

>  <Ki (nM)>
0.6

$$$$
>  <Molecule>
CN1C2CCC1CN(c1ccc3c(c1)S(=O)(=O)c1c(F)cccc1-3)C2 [Compound 13b]

>  <Ki (nM)>
40.9

$$$$
>  <Molecule>
CN1C2CCCC1CN(c1ccc3c(c1)S(=O)(=O)c1c(F)cccc1-3)C2 [Compound 12b]

>  <Ki (nM)>
105

$$$$
>  <Molecule>
O=S1(=O)c2ccccc2-c2cc(F)c(N3CCN4CCC3CC4)cc21 [Compound 10c]

>  <Ki (nM)>
8.53

$$$$
>  <Molecule>
CN1C2CCCC1CN(c1ccc3c(c1)S(=O)(=O)c1ccc(F)cc1-3)C2 [Compound 12a]

>  <Ki (nM)>
30.9

$$$$
